target: T1, Cyno PD-L1-Fc (cynomolgus, UniProt G7PSE7 19-238); assay: ForteBio, IgG, avid
T1 construct: also called cynomolgus PD-L1
T1 sequence (G7PSE7 entry or part of it limits assumed): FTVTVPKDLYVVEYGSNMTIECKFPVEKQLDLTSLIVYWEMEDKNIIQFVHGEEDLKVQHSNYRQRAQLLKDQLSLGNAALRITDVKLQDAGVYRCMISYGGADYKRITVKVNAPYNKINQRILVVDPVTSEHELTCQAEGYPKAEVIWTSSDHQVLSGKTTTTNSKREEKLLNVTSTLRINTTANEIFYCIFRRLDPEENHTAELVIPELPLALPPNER
endpoint: pKd
Give only the number. pKd is defined as minus log10 of concentration in molar units.

In the examples that follow, each entry is paired with its recorded pKd.
INSERT INTO results (binder, endpoint, data_value) VALUES
  ('BiPDL4-24 (antibody, V domains shown, Fourth generation, IgG) VH: QVQLVESGGGVVQPGRSLRLSCAASGFTFDEYGMHWVRQAPGKGLEWVAVIGYDGLNKYYADSVKGRFTISRDNSKNTLYLQMNSLRAEDTAVYYCARAGIEYSYAYTDYWGQGTLVTVSS VL: EIVLTQSPGTLSLSPGERATLSCRASNSVVSSYLAWYQQKPGQAPRLLIYGAASRANGIPDRFSGSGSGTDFTLTISRLEPEDFAVYYCVQFGWWPPRTFGGGTKVEIK', 'pKd', 9.08),
  ('BiPDL4-14 (antibody, V domains shown, Fourth generation, IgG) VH: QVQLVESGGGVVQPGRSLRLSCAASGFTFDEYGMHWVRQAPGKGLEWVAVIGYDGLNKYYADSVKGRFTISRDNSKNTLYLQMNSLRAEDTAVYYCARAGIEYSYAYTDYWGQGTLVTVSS VL: EIVLTQSPGTLSLSPGERATLSCRASQFVYSSDLAWYQQKPGQAPRLLIYGASTRKTGIPDRFSGSGSGTDFTLTISRLEPEDFAVYYCLQFGWWPPRTFGGGTKVEIK', 'pKd', 9.29);

# evaluate next
Please supply the value of reported pKd for the item BiPDL4-44 (antibody, V domains shown, Fourth generation, IgG) VH: QVQLVESGGGVIQPGRSLRLSCAASGFTFSAYLMHWVRQAPGKGLEWVAAIGYDGMNKYYADSVKGRFTISRDNSKNTLYLQMNSLRAEDTAVYYCARAGIEYSYAYTDYWGQGTLVTVSS VL: EIVLTQSPGTLSLSPGERATLSCRASHSVVSSYLAWYQQKPGQAPRLLIYGASSREDGIPDRFSGSGSGTDFTLTISRLEPEDFAVYYCVQFGWWPPRTFGGGTKVEIK
9.26

All values here come from patent US20250059282A1.
